System: HaCat
Experiment: Cytotoxic Profiling of Annotated Libraries Using Quantitative High-Throughput Screening (AID 1296008); note: % is set by controls: 0 for no effect and ±100 for the full control effect; nearly all actives have a fitted effect of over 60% in size
Details: Five cell lines viability, CellTiter-Glo ATP luminescence, 48-72 h; hits give low values
Results filed as inconclusive are left out.
# max response values compiled below

Compound	System	Unit tag	max response
OCCN1C[C@H](O)[C@@H](O)[C@H](O)[C@H]1CO	HaCat	%	-0.066
CC(=O)N1C[C@H](O)C[C@H]1C(=O)O	HaCat	%	4.9
CC(C)=CCC/C(C)=C/CO	HaCat	%	-2.14
Cc1cc(C)nc(NS(=O)(=O)c2ccc(N)cc2)n1	HaCat	%	3.39
C/C=C/C(=O)N(CC)c1ccccc1C	HaCat	%	0.376
Cc1ncc(CO)c(CN)c1O	HaCat	%	-4.24
NC(=O)CCCCC1CCSS1 (configuration not stated)	HaCat	%	-1.45
